B1: ZNF8 (parent)
chain: VHVIGVEEPSVGASMLFDIREST

- Variants of: B1
- ASSAY_SUMMARY: protein stability index of a GFP-peptide fusion (GPS, HEK-293T) (PSI 1-6); higher = more stable;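 also: lentivirally expressed fusions sorted by FACS into six bins by GFP to DsRed ratio, PSI derived from sequencing read proportions per bin multiplied by bin number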
- CONDITION_DESCRIPTION: c terminus: native
Threshold rule: protein stability index greater than or equal to 2 is true; below that, false.

Answer whether protein stability index of R20L is greater than or equal to 2. false

Answer whether protein stability index of E21A is greater than or equal to 2. true

Answer whether protein stability index of E7G is greater than or equal to 2. false

Answer whether protein stability index of I19Y is greater than or equal to 2. true

Answer whether protein stability index of G5Q is greater than or equal to 2. false

Answer whether protein stability index of P9I is greater than or equal to 2. true

Answer whether protein stability index of L16F is greater than or equal to 2. false

Answer whether protein stability index of V3S is greater than or equal to 2. true

Answer whether protein stability index of S22D is greater than or equal to 2. true

Value source: the supplement of paper PMC10567573
